All values here come from patent US20150031674A1.

# study.system: human recombinant PAK1-KD protein (Homo sapiens)
# Sequence (Q13153 270-521 limits assumed): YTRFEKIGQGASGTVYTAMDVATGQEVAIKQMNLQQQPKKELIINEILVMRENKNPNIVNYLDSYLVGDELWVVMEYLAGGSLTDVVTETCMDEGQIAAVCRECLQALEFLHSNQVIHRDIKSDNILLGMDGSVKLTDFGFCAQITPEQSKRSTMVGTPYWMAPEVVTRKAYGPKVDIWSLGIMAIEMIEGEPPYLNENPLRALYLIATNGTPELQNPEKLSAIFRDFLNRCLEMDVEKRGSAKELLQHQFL
# protocol.text: PAK1-KD (Kinase Domain) IC50 Zlyte Assay (FRET peptide substrate phosphorylation)
# condition.info: Z'-LYTE, Biological Example 1
metric.name: Ki (µM)

Use these answered entries as a reference point.
CNc1ncc2cc(-c3ccc(-c4cncc(C)n4)cc3Cl)c(=O)n(CCCCCN)c2n1 ... 0.0096
CNc1ncc2cc(-c3ccc(-c4cncc(C)n4)cc3Cl)c(=O)n(CCC3CNC(=O)C3)c2n1 (stereo not shown) ... 0.0433
CCNc1ncc2cc(-c3ccc(-c4cncc(C)n4)cc3Cl)c(=O)n(CCCCC(N)=O)c2n1 ... 0.0753
CNc1ncc2cc(-c3ccc(-c4cncc(C)n4)cc3Cl)c(=O)n(CC(=O)N3CCC[C@@H]3CN)c2n1 ... 0.0085
CCNc1ncc2cc(-c3ccc(-c4cncc(C)n4)cc3Cl)c(=O)n(C3COC4(CCNCC4)C3)c2n1 (stereo not shown) ... 0.0244

A: Cc1cccc(-c2ccc(-c3cc4cnc(NC(C)C)nc4n(CCN4CCNCC4)c3=O)c(Cl)c2)n1
B: CCNc1ncc2cc(-c3ccc(-c4cncc(C)n4)cc3Cl)c(=O)n(CC(O)CN)c2n1 (stereo not shown)
Ki comparison. Which is larger, A or B ? # answer = label of selected item B
(B: 0.0273 µM, A: 0.0016 µM)
